All values here come from patent US12570671B2.

DC50 reference
Biological target: Ikaros (Homo sapiens, UniProt Q13422+Q96SW2)
Sequence (Q13422 whole entry): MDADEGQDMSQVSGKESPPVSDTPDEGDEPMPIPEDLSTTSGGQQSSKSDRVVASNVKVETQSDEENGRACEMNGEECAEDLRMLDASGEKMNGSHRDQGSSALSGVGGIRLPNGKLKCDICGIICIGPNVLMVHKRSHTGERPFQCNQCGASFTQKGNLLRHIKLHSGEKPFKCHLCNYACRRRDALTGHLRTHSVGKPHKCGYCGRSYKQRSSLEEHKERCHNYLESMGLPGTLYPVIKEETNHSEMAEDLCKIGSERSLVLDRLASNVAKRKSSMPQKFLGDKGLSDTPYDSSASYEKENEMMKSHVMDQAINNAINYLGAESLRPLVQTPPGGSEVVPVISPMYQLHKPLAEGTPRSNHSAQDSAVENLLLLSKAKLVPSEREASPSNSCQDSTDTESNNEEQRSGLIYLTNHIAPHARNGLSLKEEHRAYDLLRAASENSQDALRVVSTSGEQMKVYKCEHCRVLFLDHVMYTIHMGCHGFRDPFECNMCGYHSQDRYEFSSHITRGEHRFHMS
Sequence (Q96SW2 whole entry): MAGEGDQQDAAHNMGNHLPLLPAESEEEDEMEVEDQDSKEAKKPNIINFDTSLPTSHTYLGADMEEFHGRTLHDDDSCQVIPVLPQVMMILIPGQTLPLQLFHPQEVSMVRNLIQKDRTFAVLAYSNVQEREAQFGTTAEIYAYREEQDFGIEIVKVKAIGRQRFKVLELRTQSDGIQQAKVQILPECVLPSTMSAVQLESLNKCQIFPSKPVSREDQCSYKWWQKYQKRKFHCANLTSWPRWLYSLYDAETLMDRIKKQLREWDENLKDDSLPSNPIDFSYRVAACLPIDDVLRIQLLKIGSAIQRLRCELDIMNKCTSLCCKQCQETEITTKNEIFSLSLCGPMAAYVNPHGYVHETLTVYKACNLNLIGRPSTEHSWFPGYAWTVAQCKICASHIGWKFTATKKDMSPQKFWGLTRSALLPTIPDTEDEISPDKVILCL
Sequence (Q16531 whole entry partner): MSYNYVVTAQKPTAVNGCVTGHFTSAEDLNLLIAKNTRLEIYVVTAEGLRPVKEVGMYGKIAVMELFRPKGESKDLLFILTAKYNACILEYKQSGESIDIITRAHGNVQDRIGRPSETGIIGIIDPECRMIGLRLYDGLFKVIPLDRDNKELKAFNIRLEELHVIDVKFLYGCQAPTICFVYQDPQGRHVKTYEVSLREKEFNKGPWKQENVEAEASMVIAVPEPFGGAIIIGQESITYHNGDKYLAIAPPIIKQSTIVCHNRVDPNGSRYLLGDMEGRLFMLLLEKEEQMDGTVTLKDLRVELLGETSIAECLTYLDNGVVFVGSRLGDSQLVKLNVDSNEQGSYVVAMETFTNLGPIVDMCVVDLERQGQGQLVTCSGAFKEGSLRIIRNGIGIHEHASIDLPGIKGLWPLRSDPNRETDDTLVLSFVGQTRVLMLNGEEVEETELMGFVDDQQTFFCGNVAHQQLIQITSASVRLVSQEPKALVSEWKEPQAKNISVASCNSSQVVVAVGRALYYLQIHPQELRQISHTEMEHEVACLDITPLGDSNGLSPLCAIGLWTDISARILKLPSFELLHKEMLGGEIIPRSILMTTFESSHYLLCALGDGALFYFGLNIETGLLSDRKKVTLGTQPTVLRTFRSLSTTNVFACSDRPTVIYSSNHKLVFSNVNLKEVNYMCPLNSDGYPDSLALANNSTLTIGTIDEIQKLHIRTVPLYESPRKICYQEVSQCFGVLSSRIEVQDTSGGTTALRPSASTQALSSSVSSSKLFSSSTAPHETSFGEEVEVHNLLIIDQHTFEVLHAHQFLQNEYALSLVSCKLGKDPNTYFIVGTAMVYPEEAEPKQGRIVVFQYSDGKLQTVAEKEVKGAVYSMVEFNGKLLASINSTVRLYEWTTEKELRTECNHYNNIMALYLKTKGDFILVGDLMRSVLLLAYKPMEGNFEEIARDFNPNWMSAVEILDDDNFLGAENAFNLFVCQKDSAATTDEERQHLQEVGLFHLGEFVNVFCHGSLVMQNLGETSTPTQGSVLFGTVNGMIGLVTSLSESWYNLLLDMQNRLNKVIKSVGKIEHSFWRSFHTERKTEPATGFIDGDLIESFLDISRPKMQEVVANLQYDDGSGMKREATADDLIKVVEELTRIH
Assay: Helios Cellular Degradation Assay (Ikaros readout)
Format: cell-based
Design: endogenous in cells; host or cells: Jurkat
Details: Jurkat cells, 72 h incubation, Ikaros-Alexa488 antibody staining, flow cytometry; read-out: Ikaros Jurkat IC50

Some molecules with recorded DC50:
>  <molecule>
Nc1cc2ccccc2c(-c2ccc3c(c2)CN([C@H]2CCC(=O)NC2=O)C3=O)n1 [Example 123]

>  <assay_result>
≥ 20 µM

$$$$
>  <molecule>
O=C1CCC(N2Cc3cc(-c4cc5c(cn4)NCC5)ccc3C2=O)C(=O)N1 (centres unmarked) [Example 113]

>  <assay_result>
≥ 10 µM

$$$$
>  <molecule>
Nc1cc2cccnc2c(-c2ccc3c(c2)CN(C2CCC(=O)NC2=O)C3=O)n1 (centres unmarked) [Example 53]

>  <assay_result>
> 20 µM

$$$$
>  <molecule>
Nc1nc(-c2ccc3c(c2)CN(C2CCC(=O)NC2=O)C3=O)cc2ncccc12 (centres unmarked) [Example 57]

>  <assay_result>
> 20 µM

$$$$
>  <molecule>
O=C1CCC(N2Cc3cc(-c4nccc5ncccc45)ccc3C2=O)C(=O)N1 (centres unmarked) [Example 100]

>  <assay_result>
≥ 20 µM

$$$$
>  <molecule>
Cc1cnc(-c2ccc3c(c2)CN(C2CCC(=O)NC2=O)C3=O)cc1C (centres unmarked) [Example 121]

>  <assay_result>
1.28 µM

$$$$

DC50 reported for this molecule O=C1CCC(N2Cc3cc(-c4nccc(-c5ccccn5)n4)ccc3C2=O)C(=O)N1 (centres unmarked) [Example 75] : > 20 µM

DC50 reported for this molecule O=C1CCC(N2Cc3cc(-c4nc(O)cc5c(Cl)cccc45)ccc3C2=O)C(=O)N1 (centres unmarked) [Example 145] : ≥ 20 µM

---

Target: Helios (Homo sapiens, UniProt Q96SW2+Q9UKS7)
Sequence (Q9UKS7 whole entry): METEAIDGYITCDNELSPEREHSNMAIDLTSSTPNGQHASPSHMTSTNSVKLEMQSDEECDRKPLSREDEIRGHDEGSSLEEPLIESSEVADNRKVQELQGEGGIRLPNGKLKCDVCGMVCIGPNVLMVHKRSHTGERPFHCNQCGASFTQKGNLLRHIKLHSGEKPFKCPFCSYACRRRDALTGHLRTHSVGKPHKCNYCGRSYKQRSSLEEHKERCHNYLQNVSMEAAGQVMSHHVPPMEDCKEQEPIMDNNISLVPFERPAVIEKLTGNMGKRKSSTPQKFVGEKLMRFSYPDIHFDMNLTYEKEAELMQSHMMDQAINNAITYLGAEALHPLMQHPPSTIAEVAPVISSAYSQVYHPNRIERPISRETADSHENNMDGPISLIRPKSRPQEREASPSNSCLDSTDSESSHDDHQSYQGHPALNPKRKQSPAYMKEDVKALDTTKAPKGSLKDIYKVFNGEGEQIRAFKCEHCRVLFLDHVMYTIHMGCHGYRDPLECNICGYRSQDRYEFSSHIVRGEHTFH
Sequence (Q96SW2 whole entry): as the sequence (Q96SW2 whole entry) above
Sequence (Q16531 whole entry partner): as the sequence (Q16531 whole entry partner) above
Assay: Helios Cellular Degradation Assay (Helios readout)
Type: cell-based
Parameters: endogenous in cells; host or cells: Jurkat
Conditions: Jurkat cells, 72 h incubation, Helios-PE antibody staining, flow cytometry; read-out: Helios Jurkat IC50
DC50 reference
Give the number; nM is assumed, so skip it.

Some compounds with recorded DC50:
>  <compound>
COc1ccc2c(-c3ccc4c(c3)CN(C3CCC(=O)NC3=O)C4=O)nc(OC)cc2c1 (centres unmarked) [Example 58]

>  <target_desc>
Helios (Homo sapiens, UniProt Q96SW2+Q9UKS7)

>  <DC50 / nM>
1

$$$$
>  <compound>
O=C1CCC(N2Cc3cc(-c4nc5ccccc5nc4-c4ccccc4)ccc3C2=O)C(=O)N1 (centres unmarked) [Example 99]

>  <target_desc>
Helios (Homo sapiens, UniProt Q96SW2+Q9UKS7)

>  <DC50 / nM>
340

$$$$
>  <compound>
COc1nc(-c2ccc3c(c2)CN(C2CCC(=O)NC2=O)C3=O)cc2ccccc12 (centres unmarked) [Example 156]

>  <target_desc>
Helios (Homo sapiens, UniProt Q96SW2+Q9UKS7)

>  <DC50 / nM>
500

$$$$

DC50 reported for this compound O=C1CCC(N2Cc3cc(-c4ccc5c(n4)NCCN5)ccc3C2=O)C(=O)N1 (centres unmarked) [Example 118] : 180

DC50 reported for this compound N#Cc1cnc(-c2ccc3c(c2)CN(C2CCC(=O)NC2=O)C3=O)nc1N (centres unmarked) [Example 80] : 320

DC50 reported for this compound Nc1nc(-c2ccccc2)nc(-c2ccc3c(c2)CN(C2CCC(=O)NC2=O)C3=O)n1 (centres unmarked) [Example 73] : 67

DC50 reported for this compound O=C1CCC(N2Cc3cc(-c4ncnc5ccccc45)ccc3C2=O)C(=O)N1 (centres unmarked) [Example 91] : 210

DC50 reported for this compound O=C1CCC(N2Cc3cc(-c4cc5ccccc5c(=O)[nH]4)ccc3C2=O)C(=O)N1 (centres unmarked) [Example 157] : 110

DC50 reported for this compound O=C1CCC(N2Cc3cc(-c4cc5[nH]ccc5cn4)ccc3C2=O)C(=O)N1 (centres unmarked) [Example 159] : 50
